Catalogue of protein stability index readings, one per entry.
Experiment: protein stability index of a GFP-peptide fusion (GPS, HEK-293T) (PSI 1-6); higher = more stable;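 note: 24-mer peptide tiles fused after GFP, lentivirally expressed, FACS-sorted into six equal bins by GFP/DsRed ratio, decoded by Illumina sequencing, PSI is the read-weighted mean bin number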
Details: treatment: DMSO; c terminus: a fixed tail appended
# output: bare number, no unit

{"Sequence": "EERKNEMTQVITRTQEEKLEHVRA [TRIM55]", "Assay Readout": "protein stability index", "Readout Number": 5.3}
{"Sequence": "TRGRGGLLRDHIPRGKEELESLGG [MOG]", "Assay Readout": "protein stability index", "Readout Number": 4.72}
{"Sequence": "LREINFKIVEFNPMVLKGKIRPDS [GLT8D2]", "Assay Readout": "protein stability index", "Readout Number": 2.39}
{"Sequence": "HPIEEAAEEHREKLLKQMRILWKK [TRIM43]", "Assay Readout": "protein stability index", "Readout Number": 3.45}
{"Sequence": "RTLPAFQVPYPPRQLLRDFQSRLP [P3H4]", "Assay Readout": "protein stability index", "Readout Number": 2.76}

Value of measured protein stability index for the entry GRFCGQQNPPVIKSSGRFLWIKFF [NETO1] : 2.1

Value of measured protein stability index for the entry LRVSPAEQPRLEFLMRKCGWFVRE [FBXO33] : 1.97

Value of measured protein stability index for the entry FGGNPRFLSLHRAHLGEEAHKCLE [ZNF263] : 2.47

Value of measured protein stability index for the entry GHEKTAKSKTRSLLKRMESLKLKS [DLC1] : 3.62

Value of measured protein stability index for the entry LEEAKKMEMAKFRYILPVYGICRE [RIPK4] : 2.26

Value of measured protein stability index for the entry KNIFGTPEFVAPEIVNYEPLGLEA [DAPK3] : 3.95

====

Assay: protein stability index of a GFP-peptide fusion (GPS, HEK-293T) (PSI 1-6); higher = more stable
Settings: treatment: MLN4924 1 uM, 8 h; c terminus: a fixed tail appended
Catalogue of protein stability index readings, one per entry.
# output: bare number, no unit

{"Sequence": "VVTRVVTGVYPRCLHASQWPVCAA [BRF1]", "protein stability index": 2.75}
{"Sequence": "EEGDEQQRLLNTPRRKKLKSTSKY [GMCL1]", "protein stability index": 4.9}
{"Sequence": "HDHLTLSVSRPEGRSWPSAPDDSK [PDLIM4]", "protein stability index": 5.06}
{"Sequence": "LHVAAHYGRDSFVRLLLEFKAEVD [ASB7]", "protein stability index": 2.15}
{"Sequence": "MLIFSLALEEPEKMGLQERSETFL [DNAAF3]", "protein stability index": 2.38}

Value of measured protein stability index for the entry TKPLAIHPCGDKNCPAHWLAQDWE [ADAMTSL2] : 2.73

Value of measured protein stability index for the entry HCIQQILEAVLHCHQMGVVHRDLK [CAMK2B] : 2.95

Value of measured protein stability index for the entry ERETEATRGRGGLLRDHIPRGKEE [MOG] : 5.18

Value of measured protein stability index for the entry VLVAETTMARIRRVYVSGLMKGGA [APMAP] : 2.1

Value of measured protein stability index for the entry KFAGSFYFAITVITTIGYGHAAPG [KCNK9] : 3.27

Value of measured protein stability index for the entry GHGSHSFIYYENMLLGVPRLRQLK [PKD2L1] : 2.27

====

Catalogue of protein stability index readings, one per entry.
Experiment: protein stability index of a GFP-peptide fusion (GPS, HEK-293T) (PSI 1-6); higher = more stable
Conditions: treatment: MLN4924 1 uM, 8 h; c terminus: a fixed tail appended
# output: bare number, no unit

{"Sequence": "ISEKLTLLPTLYEIHSKTTAYSRL [RNF180]", "protein stability index": 2.06}

Let us move to another entry and its protein stability index.
Value of measured protein stability index for the entry MGGHHPGADYPVDGLPDLGHAQDL [CTNNB1] : 5.03

====

Test: protein stability index of a GFP-peptide fusion (GPS, HEK-293T) (PSI 1-6); higher = more stable
Settings: treatment: DMSO; c terminus: a fixed tail appended
Assay Readout: protein stability index
# output: bare number, no unit

In the examples that follow, each entry is paired with its recorded protein stability index.
{"Sequence": "EEFLSAMQSARGPTPSSPLPSVPV [PLEKHN1]", "Assay Readout": "protein stability index", "Readout Number": 4.15}
{"Sequence": "KFAGSFYFAITVITTIGYGHAAPG [KCNK9]", "Assay Readout": "protein stability index", "Readout Number": 3.42}
{"Sequence": "TEAGGVLMDVTGGPFDLMSRRVIA [IMPA1]", "Assay Readout": "protein stability index", "Readout Number": 3.22}
{"Sequence": "FMKYVDSNLCCFIPGKVIDEIYRV [FBXO28]", "Assay Readout": "protein stability index", "Readout Number": 2.99}
{"Sequence": "GSYGVVFKCRNKTSGQVVAVKKFV [CDKL4]", "Assay Readout": "protein stability index", "Readout Number": 2.02}
{"Sequence": "AGKEAMTSDGYTALHLAARNGHLA [RIPK4]", "Assay Readout": "protein stability index", "Readout Number": 3.43}
{"Sequence": "GDKYEHHSYMGMRGFCAFLGSWLV [POMT2]", "Assay Readout": "protein stability index", "Readout Number": 2.23}

Let us move to another entry and its protein stability index.
Value of measured protein stability index for the entry SSKSDADSGFLGLRPTSVDPALRR [NOP53] : 4.51

====

Experiment: protein stability index of a GFP-peptide fusion (GPS, HEK-293T) (PSI 1-6); higher = more stable
Conditions: treatment: DMSO; c terminus: a fixed tail appended
Catalogue of protein stability index readings, one per entry.
# output: bare number, no unit

{"Sequence": "RRSIRYGREVELKPYIAAHFDVLP [PTPRD]", "protein stability index": 2.5}
{"Sequence": "DAMQLNDKWQGLCWPMMDFLRCVT [CMTM3]", "protein stability index": 2.22}
{"Sequence": "MVEADHPGKLFIGGLNRETNEKML [RBMY1A1]", "protein stability index": 3.91}

Value of measured protein stability index for the entry REVEQWFATQTEELNKQVVSSSEQ [KRT33B] : 4.98

Value of measured protein stability index for the entry DVGCISVTVPSMLSRLLSRKRAVP [OR3A1] : 2.71

Value of measured protein stability index for the entry PRKTAAPVNALVSHLLVVEPEKLY [ESRRA] : 2.83

====

Test: protein stability index of a GFP-peptide fusion (GPS, HEK-293T) (PSI 1-6); higher = more stable
Conditions: treatment: DMSO; c terminus: a fixed tail appended
Catalogue of protein stability index readings, one per entry.
# output: bare number, no unit

In the examples that follow, each entry is paired with its recorded protein stability index.
{"Sequence": "TKPLAIHPCGDKNCPAHWLAQDWE [ADAMTSL2]", "protein stability index": 2.73}
{"Sequence": "RGVDVSLQGKDAWLPLHYAAWQGH [RIPK4]", "protein stability index": 2.58}
{"Sequence": "NCEQLCVNVPGSFVCQCYSGYALA [MATN2]", "protein stability index": 2.16}

Value of measured protein stability index for the entry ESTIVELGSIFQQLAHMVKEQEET [STX5] : 2.4

Value of measured protein stability index for the entry EEAVPEEEGPTVVLNPHPSLGYKE [CHGA] : 5.33

Value of measured protein stability index for the entry FGQQDWKFLASHFPNRTDQQCQYR [MYBL2] : 2.62

Value of measured protein stability index for the entry VLALEERFGVRPKVTGYLISYSSM [MFSD9] : 2.17

Value of measured protein stability index for the entry RKDFSELRSAGVEQLMYIKEDLII [FAM50A] : 2.24

====

Assay: protein stability index of a GFP-peptide fusion (GPS, HEK-293T) (PSI 1-6); higher = more stable
Conditions: treatment: DMSO; c terminus: a fixed tail appended
Catalogue of protein stability index readings, one per entry.
# output: bare number, no unit

In the examples that follow, each entry is paired with its recorded protein stability index.
{"Sequence": "FELDLGKKVLNLLKGAFPARLKKV [PTPN9]", "protein stability index": 2.84}
{"Sequence": "SSPGPWGLEALAGGDLMPAPADPT [FCHO1]", "protein stability index": 4.78}
{"Sequence": "LANHTGYIKVDWQRVEKDMKKAKE [FUNDC2]", "protein stability index": 4.11}
{"Sequence": "SFVVLLYILDNETNFVVQVSVFIG [CLPTM1]", "protein stability index": 3.15}
{"Sequence": "VLLMAICIVSPDRPGVQDAALIEA [VDR]", "protein stability index": 2.8}

Value of measured protein stability index for the entry IGRAAGTGFTVNVAWNGPRMGDAD [HDAC6] : 3.02

Value of measured protein stability index for the entry TSQKVARKFWWKNVKMIVLICVIV [VAMP8] : 2.42

Value of measured protein stability index for the entry AAGIGKLSTADGKAFADPEVLRRL [ANKRD17] : 4.2

Value of measured protein stability index for the entry GGARSLWRGNGINVLKIAPESAIK [SLC25A25] : 3.29

Value of measured protein stability index for the entry RERADIGGLMARPEYREWNPELIK [FAM107A] : 4.16

Value of measured protein stability index for the entry QILGQTLKASMRELGLLIFFLFIG [KCNA1] : 2.67

Value of measured protein stability index for the entry FSSLNHIVEKRVLAHLAPLFDNPK [INTS3] : 2.27

Value of measured protein stability index for the entry ERDTLSIRESRLFGAVVRWAEAEC [BTBD1] : 3.13

Value of measured protein stability index for the entry KPDGSRHQDVPSQDDSKPTQRQFT [AASDHPPT] : 5.44

All values here come from the supplement of paper PMC10567573.
